The reported numbers originate from patent US20080317692A1.

Reported Ki values follow for various compounds
- test system: mushroom tyrosinase
- experimental details: Michaelis constant and maximal inactivation rate constant (method of Frere et al.)
- experimental conditions: 0.03 μM tyrosinase, 2.5 mM L-DOPA as enzyme substrate, 50 to 300 μM suicide substrate (FIG. 6); read-out: Michaelis constant KI of the inactivator

{"columns": ["compound", "Ki [µM]"],
 "data": [
  ["O=c1c(-c2ccc(O)cc2)coc2c(O)c(O)ccc12 [7,8,4′-trihydroxyisoflavone]", 18.7],
  ["O=c1c(-c2ccc(O)cc2)coc2c(O)c(O)cc(O)c12 [5,7,8,4′-tetrahydroxyisoflavone]", 7.81]
]}
